The origin of these recorded values is ChEMBL document CHEMBL1152654.

Assay: Aqueous solubility in water
Assay type: physicochemical
PROPERTY_LABEL: solubility

Data request: Can you look up the measured solubility of `CC(C)[C@H](NC(=O)CN1CCN(CC(=O)O)C1=O)C(=O)N1CCC[C@H]1C(=O)N[C@H](C(=O)C(F)(F)F)C(C)C` for me?
Data returned: > 1000 mg/mL

---

Measured inhibition in vivo at 3 mg/kg values are reported for all entries that follow.
Test system: Hamster
Experiment: Inhibition of human neutrophil elastase-induced lung hemorrhage in hamster at 3 mg/kg, iv administered as bolus dose
Assay type: functional
Details: Cricetinae
Write the answer as a number in %, unit excluded.

SUBSTANCE_SMILES	EXPERIMENTAL_RESULT
CC(C)[C@H](NC(=O)[C@@H]1CCCN1C(=O)[C@@H](NC(=O)Cn1ncc(=O)n(CC(=O)O)c1=O)C(C)C)C(=O)c1nc2ccccc2o1	14
Cc1cn(CC(=O)N[C@H](C(=O)N2CCC[C@H]2C(=O)N[C@H](C(=O)c2nc3ccccc3o2)C(C)C)C(C)C)c(=O)n(CC(=O)O)c1=O	39
CC(C)[C@H](NC(=O)[C@@H]1CCCN1C(=O)[C@@H](NC(=O)CN1CC(=O)N(CC(=O)O)CC1=O)C(C)C)C(=O)c1nc2ccccc2o1	20

Data request: Can you look up the measured inhibition in vivo at 3 mg/kg of `CC(C)[C@H](NC(=O)[C@@H]1CCCN1C(=O)[C@@H](NC(=O)CN1CC(=O)N(CC(=O)O)C1=O)C(C)C)C(=O)c1nc2ccccc2o1` for me?
Data returned: 32

Data request: Would you mind doing `CC(C)[C@H](NC(=O)[C@@H]1CCCN1C(=O)[C@@H](NC(=O)CN1CCN(CC(=O)O)C1=O)C(C)C)C(=O)c1nc2ccccc2o1` as well?
Data returned: 22

Data request: Would you mind doing `CC(C)[C@H](NC(=O)[C@@H]1CCCN1C(=O)[C@@H](NC(=O)Cn1c(=O)ccn(CC(=O)O)c1=O)C(C)C)C(=O)c1nc2ccccc2o1` as well?
Data returned: 34
